molecular target: T1, human MSLN-R3-3 polypeptide (human); test: ELISA, coated antigen, antibody 10 nM
T1 construct: Part of region R3 of human MSLN; also called hMSLN-R3-3; human MSLN-R3-3 protein
Property: OD450
I'd appreciate a reply containing only the number, no unit.

Recorded OD450, per entry:
S009-F5-9.16 chimeric antibody (antibody, human IgG1, kappa, V domains shown, Human-murine chimeric antibody, human IgG1/kappa constant regions) VH: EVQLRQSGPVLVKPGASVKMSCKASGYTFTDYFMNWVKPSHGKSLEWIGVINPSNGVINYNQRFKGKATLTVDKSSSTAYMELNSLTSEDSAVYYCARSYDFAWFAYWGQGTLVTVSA VL: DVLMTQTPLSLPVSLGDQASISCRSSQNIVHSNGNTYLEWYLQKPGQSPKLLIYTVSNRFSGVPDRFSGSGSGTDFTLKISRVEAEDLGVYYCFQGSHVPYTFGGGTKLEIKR	0.67
S009-F4-94.15 chimeric antibody (antibody, human IgG1, kappa, V domains shown, Human-murine chimeric antibody: murine VH/VL on human IgG1 heavy and kappa light constant regions) VH: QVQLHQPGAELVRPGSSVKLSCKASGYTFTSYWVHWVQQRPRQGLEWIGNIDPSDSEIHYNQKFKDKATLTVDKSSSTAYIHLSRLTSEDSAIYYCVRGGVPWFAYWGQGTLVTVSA VL: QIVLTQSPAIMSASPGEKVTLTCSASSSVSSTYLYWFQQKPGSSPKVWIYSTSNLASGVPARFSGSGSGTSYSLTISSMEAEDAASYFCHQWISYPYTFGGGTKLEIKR	0.06
S009-F4-127.10 chimeric antibody (antibody, human IgG1, kappa, V domains shown, Human-murine chimeric antibody, human IgG1/kappa constant regions) VH: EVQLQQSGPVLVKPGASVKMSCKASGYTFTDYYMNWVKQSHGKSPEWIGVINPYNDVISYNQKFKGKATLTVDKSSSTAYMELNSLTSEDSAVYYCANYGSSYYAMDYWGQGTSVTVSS VL: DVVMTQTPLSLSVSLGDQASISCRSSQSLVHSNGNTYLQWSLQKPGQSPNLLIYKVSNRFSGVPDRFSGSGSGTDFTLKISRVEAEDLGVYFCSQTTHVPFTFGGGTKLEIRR	0.06

Query: // query OD450 value for entry S009-F6-76.1 chimeric antibody (antibody, human IgG1, kappa, V domains shown, Human-murine chimeric antibody, human IgG1/kappa constant regions) VH: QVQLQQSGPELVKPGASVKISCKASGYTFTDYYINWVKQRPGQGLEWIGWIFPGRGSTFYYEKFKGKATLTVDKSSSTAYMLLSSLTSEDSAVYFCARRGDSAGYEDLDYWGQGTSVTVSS VL: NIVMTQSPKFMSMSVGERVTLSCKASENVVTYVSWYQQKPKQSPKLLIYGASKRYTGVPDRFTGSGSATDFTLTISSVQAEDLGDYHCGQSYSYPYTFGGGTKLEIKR
Response: 0.04
